B1: Retinoic acid receptor beta, residues 85 to 161; numbered along this chain, P10826 (parent)
chain: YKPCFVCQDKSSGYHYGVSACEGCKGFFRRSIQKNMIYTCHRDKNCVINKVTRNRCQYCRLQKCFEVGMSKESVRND

# Variants of: B1
# Assay: abundance fitness (aPCA) (normalised: wild type 0, dead -1); higher = more abundant; growth selection in yeast, the domain comes from the species named
# Condition: Homo sapiens
The following variants are shown together with reported abundance fitness values.
Reply with just the number.

// known answers, use as guide
Sequence variant: K10C
abundance fitness: 0.019
//
Sequence variant: T39L
abundance fitness: 0.059
//
Sequence variant: V51Q
abundance fitness: 0.076

The variant listed as H15T has a reported abundance fitness of -0.046

Reported abundance fitness of V51C : -0.249

Recorded result, S12N , abundance fitness: 0.023

Data point: H41E ; abundance fitness = 0.131
